Listed below: viability at 24 h, 3.75 µM values for each entry.
Experiment: in vitro
Settings: human
Numeric answer only, unit % assumed.

Worked examples, 4 molecules total:
molecule=Cc1cc(Nc2ccc(NC(=O)c3ccc(Nc4ncnc5ccccc45)cc3)cc2)nc(N)n1 recorded_value=103
molecule="Cc1cc(Nc2ccc(NC(=O)c3ccc(Nc4ccnc5ccccc45)cc3)cc2)nc(N)n1 [Compound 1, SGI-1027, reference compound]" recorded_value=91.9
molecule=Nc1nccc(Nc2ccc(NC(=O)c3ccc(Nc4ncnc5ccccc45)cc3)cc2)n1 recorded_value=97.2
molecule=Nc1cc(Nc2ccc(NC(=O)c3ccc(Nc4ccnc5ccccc45)cc3)cc2)ccn1 recorded_value=93.6

Now for a further molecule.
Field request: viability at 24 h, 3.75 µM | item: "Cc1cc(Nc2ccc(NC(=O)c3ccc(Nc4ccnc5[nH]ccc45)cc3)cc2)nc(N)n1"
94.8
